Data origin: patent US20250188092A1

- Tested on: M. tuberculosis transformed with luxABCDE
- Protocol: microbe, parasite or virus in culture
- Format: cell-based, Mycobacterium tuberculosis
- Experimental Conditions: Mycobacterium tuberculosis, 168 h; […]; ≥99% reduction in luminescence; read-out: MBC99 Day 7 (Lux Assay) MBC
I'd appreciate it if you marked entries T when MBC is lower than 0.08 µM and F when it is not.

Previously resolved entries follow.
- Molecule: "CO[C@H]1/C=C/O[C@@]2(C)Oc3c(C)c(O)c4c(=O)c(c5oc6cc(N7CCN(C(C)=O)CC7)cc(C)c6nc-5c4c3C2=O)NC(=O)/C(C)=C\\C=C\\[C@H](C)[C@H](O)[C@@H](C)[C@@H](O)[C@@H](C)[C@H](OC(C)=O)[C@@H]1C [Compound 26d]"
  Answer Label: "F"
- Molecule: "CO[C@H]1/C=C/O[C@@]2(C)Oc3c(C)c(O)c4c(=O)c(c5oc6cc(N7CCN(C(=O)c8ccc9occc9c8)CC7)cc(C)c6nc-5c4c3C2=O)NC(=O)/C(C)=C\\C=C\\[C@H](C)[C@H](O)[C@@H](C)[C@@H](O)[C@@H](C)[C@H](OC(C)=O)[C@@H]1C [Compound 29c]"
  Answer Label: "T"

### Prompt In the record for CO[C@H]1/C=C/O[C@@]2(C)Oc3c(C)c(O)c4c(=O)c(c5oc6cccc(OCc7ccc(CN8CCOCC8)cc7)c6nc-5c4c3C2=O)NC(=O)/C(C)=C\C=C\[C@H](C)[C@H](O)[C@@H](C)[C@@H](O)[C@@H](C)[C@H](OC(C)=O)[C@@H]1C [Compound 16d] , is MBC less than 0.08 µM?
### Response F

### Prompt In the record for CO[C@H]1/C=C/O[C@@]2(C)Oc3c(C)c(O)c4c(=O)c(c5oc6cccc(OCc7cccc(CN8CCN(C(=O)CN9CCOCC9)CC8)c7)c6nc-5c4c3C2=O)NC(=O)/C(C)=C\C=C\[C@H](C)[C@H](O)[C@@H](C)[C@@H](O)[C@@H](C)[C@H](OC(C)=O)[C@@H]1C [Compound 11f] , is MBC less than 0.08 µM?
### Response F

### Prompt In the record for COC(=O)N1CCN(c2cc(C)c3nc4c5c6c7c(C)c(O)c5c(=O)c(c-4oc3c2)NC(=O)/C(C)=C\C=C\[C@H](C)[C@H](O)[C@@H](C)[C@@H](O)[C@@H](C)[C@H](OC(C)=O)[C@H](C)[C@@H](OC)/C=C/O[C@@](C)(O7)C6=O)CC1 [Compound 26g] , is MBC less than 0.08 µM?
### Response T

### Prompt In the record for CO[C@H]1/C=C/O[C@@]2(C)Oc3c(C)c(O)c4c(=O)c(c5oc6cccc(OCCCCN7CCN(C(=O)CN8CCOCC8)CC7)c6nc-5c4c3C2=O)NC(=O)/C(C)=C\C=C\[C@H](C)[C@H](O)[C@@H](C)[C@@H](O)[C@@H](C)[C@H](OC(C)=O)[C@@H]1C [Compound 5e] , is MBC less than 0.08 µM?
### Response T

### Prompt In the record for CO[C@H]1/C=C/O[C@@]2(C)Oc3c(C)c(O)c4c(=O)c(c5oc6cc(N7CCN(CC(C)C)CC7)cc(OCc7ccc(CN8CCN(C)CC8)cc7)c6nc-5c4c3C2=O)NC(=O)/C(C)=C\C=C\[C@H](C)[C@H](O)[C@@H](C)[C@@H](O)[C@@H](C)[C@H](OC(C)=O)[C@@H]1C [Compound 17p] , is MBC less than 0.08 µM?
### Response F
